Origin of measurements: ChEMBL document CHEMBL1201862

Test system: HCC 2998
TEST METHOD NOTES: NCI tumour cell line growth inhibition, 48 h
Activity calls are given as the source filed them. Cut-off read from the data, not from the text of the source: active = GI50 up to about 1.1 µM and inactive = higher.
OUTCOME MEASURE: GI50

Worked examples, 5 compounds total:
Cc1c(/C=N/NC(=S)N2CCCCC2)c(=O)n(-c2ccccc2)n1C: 75 µM (inactive)
CC1=NN=C(N)NC1=CC(Sc1ccc(Cl)cc1)c1c(O)ccc2ccccc12 (stereo unspecified): 16.7 µM (inactive)
COc1ccc2cc(C(=O)O)ccc2c1OC: > 100 µM (inactive)
CCCCCCCCCCCCCCCc1nnc(SCC(=O)O)[nH]1: 43.9 µM (inactive)
C/C(=N\O)c1ccc(OCc2cc(C(F)(F)F)cc(C(F)(F)F)c2)cc1: 32.1 µM (inactive)

Let us examine a further case.
GET GI50 where system = HCC 2998 and item = `COc1cc(/C=C2\N=C(c3ccccc3)N(c3ccc4c(c3)Sc3cc(N5C(=O)/C(=C/c6cc(OC)c(OC)c(OC)c6)N=C5c5ccccc5)ccc3N4)C2=O)cc(OC)c1OC`
21.2 µM (inactive)

====

Test system: LOX IMVI
TEST METHOD NOTES: NCI tumour cell line growth inhibition, 48 h
Activity calls are given as the source filed them. Cut-off read from the data, not from the text of the source: active = GI50 up to about 1.1 µM and inactive = higher.
Consider the following compounds and their measured GI50 readings.

Completed entries (count: 2):
NC(=O)CCC(NCc1c2ccccc2[n+]([O-])c2ccccc12)C(=O)O (stereo not drawn): 39.1 µM (inactive)
Cc1cc(=O)oc2c(CN3CCCCC3)c(O)ccc12: > 100 µM (inactive)

Next up:
Using the record for CC(C)CC(NC(=O)c1cccc(O)c1O)C(=O)NCc1cc(CNC(=O)C(CC(C)C)NC(=O)c2cccc(O)c2O)cc(CNC(=O)C(CC(C)C)NC(=O)c2cccc(O)c2O)c1 (stereo not drawn) , state its measured GI50.
8.63 µM (inactive)

====

Tested on: XF498
TEST METHOD NOTES: NCI tumour cell line growth inhibition, 48 h
Calls of active or inactive are those of the source. Cut-off read from the data, not from the text of the source: active = GI50 up to about 1.1 µM and inactive = higher.
OUTCOME MEASURE: GI50

Answered cases to consult:
COc1cc2c(cc1O)C=NCC2: > 100 µM (inactive)
CCN1N=CSC12C(=O)N(c1ccccc1)C(=O)N2c1ccccc1 (centres undefined): 32.7 µM (inactive)
NC1=NN(c2ccccc2)C(=O)C1/C(=N\NC(=O)c1cc2ccccc2cc1O)C(=O)Nc1cccc(C(F)(F)F)c1 (centres undefined): 64.9 µM (inactive)

Consider the record given below.
Annotate the compound `O=c1cc(O)cc2n1CCC2` with its measured GI50.
> 100 µM (inactive)

====

Test system: SW-620
TEST METHOD NOTES: NCI tumour cell line growth inhibition, 48 h
The source made the active and inactive calls. No stated cut-off is given here; in the data, active = GI50 up to about 1.1 µM and inactive = higher.
OUTCOME MEASURE: GI50

Answered cases to consult:
COS(=O)(=O)OCCC(NC(=O)OCc1ccccc1)C(=O)OCc1ccccc1 (stereo not drawn): > 100 µM (inactive)
CC1(C)OC(CP(c2ccccc2)c2ccccc2)C(CP(c2ccccc2)c2ccccc2)O1 (stereo not drawn): 1.17 µM (inactive)

As a next step, examine the compound that follows.
Answer with the recorded GI50 for the compound listed here: `CCOC(=O)/C(C#N)=C/N(CC)/N=C/c1ccccc1`
> 100 µM (inactive)

====

Tested on: SK-MEL-28
TEST METHOD NOTES: NCI tumour cell line growth inhibition, 48 h
Calls of active or inactive are those of the source. No stated cut-off is given here; in the data, active = GI50 up to about 1.1 µM and inactive = higher.
Below, each entry is listed alongside its reported GI50.

Consider the following illustrative entries.
CC(=O)C1Cn2c(=O)c3cc4ccccc4cc3c(=O)n2C=C1C (stereo not given): > 100 µM (inactive)
COc1cc(O)c2c(=O)c(OC)c(-c3ccc4c(c3)OCO4)oc2c1OC: > 50 µM (inactive)
COC(=O)CCC1=C(CC(=O)OC)C(C)(OC)N/C1=N/C(=O)OCc1ccccc1 (stereo not given): > 100 µM (inactive)
C=C/C(C)=C\CC1[C@](C)(O)CC[C@H]2C(C)(C)C(O)CC[C@]12C (stereo not given in full): > 100 µM (inactive)
COC(=O)c1cccc(N[C@@H]2c3cc4c(cc3C(c3cc(OC)c(O)c(OC)c3)[C@H]3C(=O)OCC32)OCO4)c1 (stereo not given in full): 2.67 µM (inactive)
CC(=O)Nc1ccc(/N=C2\C(c3ccccc3)=C(SC3=C(c4ccccc4)/C(=N\c4ccc(NC(C)=O)cc4)c4ccccc43)c3ccccc32)cc1: 32.7 µM (inactive)
CCNC1=C(NC(=O)CCl)C(=O)c2ccccc2C1=O: 17.6 µM (inactive)
CSC1=N[C@H](c2ccccc2)CS1: > 100 µM (inactive)

Consider now this further molecule.
Supply reported GI50 belonging to this molecule: `O=C(NN=C1NCCN1)c1ccco1`
> 100 µM (inactive)

====

Tested on: MDA-MB-435
TEST METHOD NOTES: NCI tumour cell line growth inhibition, 48 h
Active and inactive are the calls of the source. No stated cut-off is given here; in the data, active = GI50 up to about 1.1 µM and inactive = higher.
Form field: GI50 (one value per entry).

Consider the reported GI50 for these compounds:
O=C(NN=C1NCCN1)c1ccco1: > 100 µM (inactive)
Cc1cnc(Cl)nc1C(C#N)c1nc2ccccc2s1 (centres undefined): 22.5 µM (inactive)

Using known records, supply GI50 for `Cc1cc(NS(=O)(=O)c2ccc(NC(NC(=O)OC(C)C)(C(F)(F)F)C(F)(F)F)cc2)nc(C)n1`
> 100 µM (inactive)

Return GI50 for the following compound: O=C(CC(Cc1ccccc1)c1ccc(Oc2ccccc2)cc1)Nc1cccc(Cl)c1 (centres undefined)
4.32 µM (inactive)

Input `CCCCS/C(=C(/C#N)C(N)=O)c1cc2c([nH]1)CCCC2` , output reported GI50.
3.36 µM (inactive)

Return GI50 (reported value) for this compound: `CCCCCCCCCCCCCC/C(C(=O)O)=C(\C)C(=O)O`
> 100 µM (inactive)

Answer with the recorded GI50 of COc1ccc(C2c3cc4c(cc3OC(NNc3ccccc3)C2C)OCO4)cc1 (centres undefined) only.
4.71 µM (inactive)

Entry CCOC(=O)C(NC(=O)C(CCCCNP(=O)(OCC)OCC)NC(=O)C(C)NC(C)=O)C(C)C (centres undefined) needs its GI50 filled in; supply it.
> 100 µM (inactive)

// Input: `O=C(NCCN1CCCCC1)c1ccc(I)cc1` . Output its GI50 only.
> 100 µM (inactive)

====

Measured GI50 by item
Tested on: PC-3
TEST METHOD NOTES: NCI tumour cell line growth inhibition, 48 h
Activity calls are given as the source filed them. No stated cut-off is given here; in the data, active = GI50 up to about 1.1 µM and inactive = higher.

Some compounds with recorded GI50:
COc1cc(/C=C2\N=C(c3ccccc3)N(c3ccc4c(c3)Sc3cc(N5C(=O)/C(=C/c6cc(OC)c(OC)c(OC)c6)N=C5c5ccccc5)ccc3N4)C2=O)cc(OC)c1OC: 19.6 µM (inactive)
CSC1=N[C@H](c2ccccc2)CS1: > 100 µM (inactive)

Return reported GI50. Input compound: `CN1CC=C(C#CC(C)(C)O)CC1`
> 37.5 µM (inactive)

====

System: MOLT-4
TEST METHOD NOTES: NCI tumour cell line growth inhibition, 48 h
Activity calls are given as the source filed them. No stated cut-off is given here; in the data, active = GI50 up to about 1.1 µM and inactive = higher.
OUTCOME MEASURE: GI50

COC(=O)Cc1c([C@@]2(C)CCCC(C)(C)C2)ccc2c1C(=O)OC2: 3.92 µM (inactive)
Cc1ccc(C(=O)Nc2ccc(S(=O)(=O)O)c3cc(S(=O)(=O)O)cc(S(=O)(=O)O)c23)cc1NC(=O)c1cccc(N)c1: > 100 µM (inactive)
Cn1ccnc1Sc1ccc(/C=N/c2ccc3nc(SCC(=O)NC4CCCCC4)sc3c2)cc1[N+](=O)[O-]: > 100 µM (inactive)

Lab note: MOLT-4 assay, enter GI50 for `O=C(c1cccs1)N(C(=S)N1CCN(c2ccccn2)CC1)C1CCCCC1` here
33 µM (inactive)

For MOLT-4, give GI50 of the listed compound: `CCCCCCCCCCCCCC/C(C(=O)O)=C(\C)C(=O)O`
> 100 µM (inactive)

Give GI50 for `O=C(CSc1nnc(Cc2ccccc2)o1)Nc1ccccc1Cl` tested on MOLT-4.
> 100 µM (inactive)

State the measured GI50 (MOLT-4) of `Cc1cc(NS(=O)(=O)c2ccc(NC(NC(=O)OC(C)C)(C(F)(F)F)C(F)(F)F)cc2)nc(C)n1`
> 100 µM (inactive)

Report value only: GI50, MOLT-4, `O=C1c2ccccc2C(=O)N1NC1=NCCN1`
> 100 µM (inactive)

====

System: BT-549
TEST METHOD NOTES: NCI tumour cell line growth inhibition, 48 h
Activity calls are given as the source filed them. Cut-off read from the data, not from the text of the source: active = GI50 up to about 1.1 µM and inactive = higher. Where a SMILES comes first, the peptide text is derived from it. [ ]: non-standard residue; d: D form. The star is where a group is joined. Hyp = O=C(O)[CH]1C[CH](O)CN1; Cbz = O=C(OCc1ccccc1)*
OUTCOME MEASURE: GI50

Please review the entries below; each comes with its answer.
NC(=O)CNC(=O)C1CC(O)CN1C(=O)C1CCCN1C(=O)OCc1ccccc1 (stereo not drawn) (Cbz-Pro-[Hyp]-Gly-NH2; configuration not given here): > 100 µM (inactive)
O=[N+]([O-])c1ccc(/C=N/Nc2nc3ccccc3[nH]2)o1: 15 µM (inactive)
NCCCC(N)C(=O)O (stereo not drawn): > 100 µM (inactive)
O=C1Cc2c([nH]c3ccc(Br)cc23)-c2cc(O)c(O)cc2N1: > 100 µM (inactive)
Cn1ccnc1Sc1ccc(/C=N/c2ccc3nc(SCC(=O)NC4CCCCC4)sc3c2)cc1[N+](=O)[O-]: 14.1 µM (inactive)

Return the recorded GI50 value; entry: `Cc1ccc([N+](=O)[O-])c2c(NCCNC(=O)c3cc(C(=O)NCCNc4ccnc5c(C)ccc([N+](=O)[O-])c45)n(C)n3)ccnc12`
> 100 µM (inactive)

Report GI50, nothing else, for this molecule: `CC[C@H](C)c1occ2c(O)c(C(=O)O)c(=O)cc-2c1C`
25.9 µM (inactive)

Return value of GI50 for input `Cc1nnc(Sc2nc(C#N)c(C#N)nc2Sc2nnc(C)s2)s1` , no commentary.
5.61 µM (inactive)

Item `NS(=O)(=O)c1nnc(NS(=O)(=O)c2ccc([N+](=O)[O-])cc2)s1` : provide GI50
> 100 µM (inactive)

Note GI50 for the molecule shown: `O=C(NCCN1CCCCC1)c1ccc(I)cc1`
> 100 µM (inactive)

Give GI50 for the following molecule: `O=C(NN=C1NCCN1)c1ccco1`
> 100 µM (inactive)

Let me know recorded GI50 for `Cc1cc(N(CCC#N)CCC#N)ccc1C(/N=N\c1ccc([N+](=O)[O-])cc1)=N\NC(=O)c1cc(Cl)ccc1O` , thanks.
34.8 µM (inactive)

Output GI50 of `COc1cc2c(cc1C[N+](C)(C)CSc1ccccc1)-c1ccccc1CC2`
3.89 µM (inactive)

Return reported GI50. Input molecule: CC1CC[C@@]2(OC1)O[C@H]1C[C@H]3[C@@H]4CC[C@H]5C[C@@H](OC6OC(CO)C(OC7OC(CO)C(OC8OC(CO)C(O)C(OC9OC(C)C(OC%10OC(C)C(O)C(O)C%10O)C(O)C9O)C8OC8OCC(O)C(O)C8O)C(O)C7O)C(O)C6O)CC[C@]5(C)[C@H]4CC(=O)[C@]3(C)[C@H]1[C@@H]2C (stereo partly drawn)
20.9 µM (inactive)

Output measured GI50 for this item: `N=C(N)NS(=O)(=O)c1ccc(NNC(=O)c2cccc3c(O)c4ccccc4nc23)cc1`
21.7 µM (inactive)

Identify GI50 associated with the molecule `O=C(O)CN1CCN(CC(=O)N2CCN(C(=O)OCc3ccccc3)CC2)CCN(CC(=O)O)CCN(CC(=O)N2CCN(C(=O)OCc3ccccc3)CC2)CC1`
> 100 µM (inactive)

Look up GI50 of `c1cc(-c2sc(-c3ccncc3)c(-c3ccncc3)c2-c2ccncc2)ccn1` and report it.
18.7 µM (inactive)

Read off the recorded GI50 for `CCOC(=O)c1sc2nc(SC)nc3c2c1NCN3c1ccc(F)c(F)c1`
6.79 µM (inactive)

Please supply the value of reported GI50 for the item `N/N=C(/C=C1\C(=O)Nc2ccccc21)c1ccccc1`
15.4 µM (inactive)
